The measurements presented in this section are drawn from patent US7160874B2.

Target: integrin α4β1 (Homo sapiens, UniProt P05556+P13612)
Construct: cell strain Jurkat (ATCC TIB-152) of human T cells, known to express integrin α4β1; host or cells: Jurkat (human T cell line)
Sequence (P13612 34-1032): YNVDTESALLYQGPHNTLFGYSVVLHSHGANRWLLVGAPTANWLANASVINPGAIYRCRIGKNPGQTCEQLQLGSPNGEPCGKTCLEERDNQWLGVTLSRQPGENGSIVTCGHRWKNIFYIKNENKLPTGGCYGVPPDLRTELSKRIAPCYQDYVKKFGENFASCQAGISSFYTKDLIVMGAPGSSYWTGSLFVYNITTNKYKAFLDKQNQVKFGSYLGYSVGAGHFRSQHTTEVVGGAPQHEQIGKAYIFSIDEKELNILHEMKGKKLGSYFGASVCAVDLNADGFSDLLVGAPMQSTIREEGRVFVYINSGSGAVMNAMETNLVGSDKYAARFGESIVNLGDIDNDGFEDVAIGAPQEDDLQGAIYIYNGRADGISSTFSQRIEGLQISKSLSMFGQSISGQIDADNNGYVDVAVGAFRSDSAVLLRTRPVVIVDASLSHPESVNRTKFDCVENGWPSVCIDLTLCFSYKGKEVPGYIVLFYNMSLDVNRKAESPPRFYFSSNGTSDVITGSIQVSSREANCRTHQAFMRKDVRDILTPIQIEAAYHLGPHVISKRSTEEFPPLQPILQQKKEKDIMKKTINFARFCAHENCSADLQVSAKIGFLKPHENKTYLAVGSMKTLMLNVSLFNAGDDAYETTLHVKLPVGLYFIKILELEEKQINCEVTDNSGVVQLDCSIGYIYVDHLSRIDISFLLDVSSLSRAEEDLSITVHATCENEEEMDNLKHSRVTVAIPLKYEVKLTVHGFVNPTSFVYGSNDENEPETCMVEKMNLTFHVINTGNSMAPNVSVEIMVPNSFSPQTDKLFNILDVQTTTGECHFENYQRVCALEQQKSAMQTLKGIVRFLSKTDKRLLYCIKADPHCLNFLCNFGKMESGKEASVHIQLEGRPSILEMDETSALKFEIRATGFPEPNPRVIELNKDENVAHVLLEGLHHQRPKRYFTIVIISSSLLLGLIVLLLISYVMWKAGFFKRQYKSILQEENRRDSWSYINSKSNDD
Sequence (P05556 21-798): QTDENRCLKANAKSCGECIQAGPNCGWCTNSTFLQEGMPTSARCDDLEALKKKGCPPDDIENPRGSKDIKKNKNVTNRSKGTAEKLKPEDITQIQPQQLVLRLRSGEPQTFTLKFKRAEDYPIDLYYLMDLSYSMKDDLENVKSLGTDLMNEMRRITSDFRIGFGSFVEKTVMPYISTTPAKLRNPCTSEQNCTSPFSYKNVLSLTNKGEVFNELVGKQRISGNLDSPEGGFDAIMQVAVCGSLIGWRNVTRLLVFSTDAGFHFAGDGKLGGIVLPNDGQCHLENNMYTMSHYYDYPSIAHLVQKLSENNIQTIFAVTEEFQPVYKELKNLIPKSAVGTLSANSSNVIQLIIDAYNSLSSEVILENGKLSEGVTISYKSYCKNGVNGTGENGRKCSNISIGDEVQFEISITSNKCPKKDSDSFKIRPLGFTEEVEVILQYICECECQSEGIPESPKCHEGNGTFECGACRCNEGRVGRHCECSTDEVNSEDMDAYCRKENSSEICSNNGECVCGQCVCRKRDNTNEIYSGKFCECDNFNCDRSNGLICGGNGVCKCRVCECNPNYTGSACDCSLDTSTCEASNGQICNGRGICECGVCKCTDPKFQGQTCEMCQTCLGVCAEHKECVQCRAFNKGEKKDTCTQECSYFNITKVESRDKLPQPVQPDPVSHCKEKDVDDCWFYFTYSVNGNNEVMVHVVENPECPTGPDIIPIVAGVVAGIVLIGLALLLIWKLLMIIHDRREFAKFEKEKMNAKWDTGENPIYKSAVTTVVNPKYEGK
Assay: VCAM antagonist activity (VCAM-1/α4β1 binding assay)
Type: cell-based
Settings: Jurkat cells binding to VCAM-1; read-out: VCAM antagonistic activity (IC50) α4β1
Experimental: (Test Example) VCAM Antagonist Activity (VCAM-1/α4β1 Binding Assay): The capacity of a test substance antagonistic to the binding of cell strain Jurkat (ATCC TIB-152) of human T cells, known to express integrin α4β1, to VCAM-1 was determined. 100 μl/well of a solution (500 ng/ml) of recombinant human VCAM-1 (R & D systems) solution diluted with buffer A (0.1 M NaHCO3, pH 9.6) was added to a micro titer plate having 96 wells (Nunc Maxisorp). […]
pIC50: −log10 of the molar value.
Here the recorded pIC50 is given for each entry.

The cases that follow already have their pIC50 on record.
CCC(CC)(C(=O)N[C@@H](Cc1ccc(OCc2c(Cl)cccc2Cl)cc1)C(=O)O)C(=O)N1CCN(C=O)CC1    5.70 to 7.00
CSc1ncc(Cl)c(C(=O)Nc2ccc(C[C@H](NC(=O)C3(C(=O)N(C)C)CC3)C(=O)O)cc2)n1    5.70 to 7.00
CN(C)C(=O)C1(C(=O)N[C@@H](Cc2ccc(NC(=O)c3cc(F)c(F)cc3Cl)cc2)C(=O)O)CC1    5.70 to 7.00
CCC(CC)(C(=O)NC(Cc1ccc(OCc2c(Cl)cccc2Cl)cc1)C(=O)O)C(=O)N1CCCC(O)C1 (mixture of isomers)    5.70 to 7.00
CCC(CC)(C(=O)N[C@@H](Cc1ccc(OCc2c(Cl)cccc2Cl)cc1)C(=O)O)C(=O)N1CC[C@H](NC(C)=O)C1    7.00 to 7.70
CCC(CC)(C(=O)N[C@@H](Cc1ccc(OCc2c(Cl)cccc2Cl)cc1)C(=O)O)C(=O)N1CC(O)C(Cl)C1 (stereo partly drawn)    7.00 to 7.70

// query Please report the recorded pIC50 for CCC(CC)(C(=O)N[C@@H](Cc1ccc(OCc2c(Cl)cccc2Cl)cc1)C(=O)O)C(=O)N1C[C@@H](O)[C@H](O)C1 (relative stereo) .
// result 7.00 to 7.70

// query Can you handle CCC(CC)(C(=O)N[C@@H](Cc1ccc(NC(=O)c2snnc2-c2ccccc2)cc1)C(=O)O)C(=O)N1CCCC1 next?
// result 5.70 to 7.00

// query Can you handle CCC(CC)(C(=O)N[C@@H](Cc1ccc(NC(=O)c2nc(SC)ncc2Br)cc1)C(=O)O)C(=O)N1CCCC1 next?
// result 7.00 to 7.70

* * *

Target: integrin α4β7 (Homo sapiens, UniProt P13612+P26010)
Construct: lymphoma cell strain RPMI-8866 of human B cells, known to express integrin α4β7; endogenous in cells; host or cells: RPMI-8866 (human B lymphoma cell line)
Sequence (P13612 34-1032): as the sequence (P13612 34-1032) above
Sequence (P26010 20-798): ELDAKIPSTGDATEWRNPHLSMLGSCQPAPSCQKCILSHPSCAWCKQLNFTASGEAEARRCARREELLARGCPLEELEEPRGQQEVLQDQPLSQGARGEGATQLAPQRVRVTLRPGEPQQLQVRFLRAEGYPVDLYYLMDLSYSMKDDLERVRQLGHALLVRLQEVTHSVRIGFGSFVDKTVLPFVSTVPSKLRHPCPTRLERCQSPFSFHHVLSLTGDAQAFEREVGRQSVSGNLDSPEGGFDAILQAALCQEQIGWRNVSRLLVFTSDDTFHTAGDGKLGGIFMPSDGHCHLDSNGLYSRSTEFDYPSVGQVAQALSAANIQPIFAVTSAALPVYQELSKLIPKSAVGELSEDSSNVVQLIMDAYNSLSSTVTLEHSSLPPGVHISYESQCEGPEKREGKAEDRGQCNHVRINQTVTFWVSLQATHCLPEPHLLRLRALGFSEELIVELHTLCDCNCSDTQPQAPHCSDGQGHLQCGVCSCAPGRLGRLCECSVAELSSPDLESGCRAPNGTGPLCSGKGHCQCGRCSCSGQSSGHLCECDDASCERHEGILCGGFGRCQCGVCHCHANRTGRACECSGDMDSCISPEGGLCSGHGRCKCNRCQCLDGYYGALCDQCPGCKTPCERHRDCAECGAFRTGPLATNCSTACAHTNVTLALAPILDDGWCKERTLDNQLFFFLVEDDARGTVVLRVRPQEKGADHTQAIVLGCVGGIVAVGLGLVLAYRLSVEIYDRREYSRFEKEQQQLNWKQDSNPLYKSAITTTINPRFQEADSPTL
Assay: VCAM antagonistic activity (VCAM-1/α4β7 binding assay)
Type: cell-based
Conditions: RPMI-8866 cells binding to VCAM-1; read-out: VCAM antagonistic activity (IC50) α4β7
pIC50: −log10 of the molar value.
Here the recorded pIC50 is given for each entry.

CCC(CC)(C(=O)N[C@@H](Cc1ccc(OCc2c(Cl)cccc2Cl)cc1)C(=O)O)C(=O)N1CC[C@H](NC(C)=O)C1 [Example 55]    > 7.70

// query Please report the recorded pIC50 for CCC(CC)(C(=O)N[C@@H](Cc1ccc(OCc2c(Cl)cccc2Cl)cc1)C(=O)O)C(=O)N1CCC1 [Example 78] .
// result > 7.70

// query Can you handle COc1cccc(OC)c1-c1ccc(C[C@H](NC(=O)C(C)(C)C(=O)N(C)C)C(=O)O)cc1 [Example 105] next?
// result 7.00 to 7.70

// query Can you handle CCC(CC)(C(=O)N[C@@H](Cc1ccc(OCc2c(Cl)cccc2Cl)cc1)C(=O)O)C(=O)N1CC[C@@H](N)C1 [Example 76] next?
// result > 7.70

// query Can you handle CCC(CC)(C(=O)NC(Cc1ccc(OCc2c(Cl)cccc2Cl)cc1)C(=O)O)C(=O)N1CCCCC1C(N)=O (mixture of isomers) [Example 51] next?
// result 7.00 to 7.70

// query Can you handle CCC(CC)(C(=O)N[C@@H](Cc1ccc(NC(=O)c2nc(NCc3ccc(OC)cc3)ncc2Cl)cc1)C(=O)O)C(=O)N1CCCC1 [Example 480] next?
// result > 7.70

// query Can you handle CCC(CC)(C(=O)N[C@@H](Cc1ccc(OCc2c(Cl)cccc2Cl)cc1)C(=O)O)C(=O)N1CC[C@@H](NC(=O)C(F)(F)F)C1 [Example 63] next?
// result 7.00 to 7.70

// query Can you handle CCC(CC)(C(=O)N[C@@H](Cc1ccc(OCc2c(Cl)cccc2Cl)cc1)C(=O)O)C(=O)N1CCC[C@H]1COC [Example 50] next?
// result 7.00 to 7.70

// query Can you handle CN(C)C(=O)C1(C(=O)N[C@@H](Cc2ccc(OCc3c(Cl)cccc3Cl)cc2)C(=O)O)CCCC1 [Example 8] next?
// result 5.70 to 7.00

// query Can you handle CCC(CC)(C(=O)N[C@@H](Cc1ccc(OCc2c(Cl)cccc2Cl)cc1)C(=O)O)C(=O)N1CC[C@H](F)C1 [Example 80] next?
// result > 7.70
